System: SW-620 colon
Experiment: NCI tumour cell line growth inhibition, 48 h
// reported GI50 for each item listed

Here is how some compounds turned out for GI50.
COMPOUND	GI50
COC(=O)Nc1nc2ccc(Sc3ccc(NC(=O)Nc4cc(C(F)(F)F)ccc4F)cc3)cc2[nH]1	1.43 µM
C=C(CC1(CC(=C)c2ccc(C(=O)O)cc2)C(=O)N(C)C(=O)N(C)C1=O)c1ccc(C(=O)O)cc1	> 100 µM
CCCCCCN(CCCCCC)CC(O)c1cccc2ccc(Cl)cc12 (stereo not given)	3.82 µM
CC1(C)CC2(C)OC2C2(C1)N=NC(=Nc1ccccc1)O2 (stereo not given)	2.35 µM
C#Cc1cccc(Nc2ncnc3ccc(-c4cncc(NS(C)(=O)=O)c4)cc23)c1	2.36 µM

Look up GI50: CCOc1cccnc1/C=N/NC(N)=S
4.46 µM

Look up GI50: CCCCCCN1C(=O)CN=C1Nc1ccc2cc3ccc(NC4=NCC(=O)N4CCCCCC)cc3nc2c1
1.84 µM

Look up GI50: COC1C(CO)OC(n2c3ccccc3c3c4c(c5c6ccccc6[nH]c5c32)C(=O)NC4=O)C(O)C1OC(=O)C(N)CCCCN (stereo not given)
0.198 µM

Look up GI50: OCCCCC#Cc1ccccc1C#Cc1cnccn1
62.6 µM

Look up GI50: Nc1ncnc2c1ncn2Cc1ccc(C23CC4CC(CC(C4)C2)C3)c(O)c1
48.7 µM

###

Tested on: U251 CNS
Test: NCI tumour cell line growth inhibition, 48 h
// reported TGI for each item listed
Use µM as the unit, but write only the number.

COMPOUND	ENDPOINT_UNIT	TGI
C=C(C)[C@@H]1CCC[C@]2(C(=O)O)CC[C@]3(C)[C@@H](CC[C@@H]4[C@@]5(C)C/C(=C/c6ccncc6)C(=O)C(C)(C)[C@@H]5CC[C@]43C)[C@@H]12	µM	7.38

Form field: TGI recorded for C/C(=C/CC[C@](C)(OC1OC(CO)C(O)C(O)C1O)[C@H]1CC[C@]2(C)[C@@H]1CC[C@@H]1[C@@]3(C)CC[C@H](O)C(C)(C)[C@@H]3C[C@H](O)[C@]12C)CO (some centres undefined) with U251 CNS (enter value)
28.5

###

System: SNB-19 CNS
Assay: NCI tumour cell line growth inhibition, 48 h
METRIC: TGI

Look up TGI: BrCC[P+](c1ccccc1)(c1ccccc1)c1ccccc1
62.1 µM

Look up TGI: COC1=CC2(C=CC1=O)CCN=c1c(O)c3c(c(O)c12)=NC=N3 (centres undefined)
> 100 µM

Look up TGI: CCCCCCCCCCCCCCCC(=O)OCC1OC(n2ccc(N)nc2=O)C(O)C1O (centres undefined)
> 100 µM

Look up TGI: CCSc1nc(N)c2cnn(C)c2n1
> 100 µM

Look up TGI: Cc1cc2c(cc1Cl)SC1=NN(C)C(c3ccccc3O)N1S2(=O)=O (centres undefined)
> 100 µM

Look up TGI: COc1ccc(-n2nc(C)c3c2N(C)C2(C)C[C@@H]4C3(C)[C@@H]3CC4(C2)N(C)c2c(c(C)nn2-c2ccc(OC)cc2)[C@H]3C)cc1 (some centres undefined)
86.3 µM

Look up TGI: CCNC(=O)Oc1ccc(/C(=C(\C)c2ccc(Cl)cc2)c2ccc(OCCN3CCCCC3)cc2)cc1
16.2 µM

Look up TGI: Cc1cccc(N2CCN(S(=O)(=O)c3ccc(Cl)cc3)C2=N)c1C
> 100 µM

Look up TGI: COc1ccccc1NC(=O)C(=O)C1C(=O)Nc2ccccc2S1=O (centres undefined)
> 100 µM

Look up TGI: O=C(O)c1ccc(Nc2cnc3ccc(C(F)(F)F)cc3n2)cc1
33.7 µM

Look up TGI: O=C(O)CCCc1nc2c(n1-c1ccccc1)C(=O)c1ccccc1C2=O
> 100 µM

Look up TGI: CCC1NCC(=O)c2c1[nH]c1ccccc21 (centres undefined)
> 100 µM

Look up TGI: COCCCN1C(=O)C2c3[nH]c4ccccc4c3C3CCC(C(C)(C)C)CC3C2C1=O (centres undefined)
> 100 µM

Look up TGI: COc1cccc(N2N=C3c4ccccc4-n4c(nc5ccccc54)C3C2N)c1 (centres undefined)
> 100 µM

Look up TGI: O=C1O/C(=C\c2ccc(O)cc2)C(c2ccc(O)c(Cl)c2)=C1Br
62.7 µM

Look up TGI: C[C@]12CC[C@@H]3c4ccc(O)cc4CC[C@H]3[C@@H]1CC[C@@H]2NS(=O)(=O)c1ccc(-c2ccccc2)cc1
> 100 µM

Look up TGI: CSc1nc2c(ncn2C2OCC(O)C(O)C2O)c(=O)[nH]1 (centres undefined)
> 100 µM

Look up TGI: Cc1[nH]c(=O)nc(N/N=C/c2ccc(O)cc2)c1C(=O)Nc1ccc(Cl)cc1
> 100 µM

Look up TGI: Cc1cccc(N2C(=O)/C(=C/c3ccc(N(CCC#N)CCC#N)cc3C)N=C2c2cc([N+](=O)[O-])ccc2Cl)c1
> 100 µM

Look up TGI: CC(=O)Nc1ncc2c(n1)-c1ccccc1OC2
> 100 µM

Look up TGI: C[C@@H](C[C@@H](O)[C@H](O)C(C)(C)O)[C@H]1CC=C2[C@]3(C)[C@H](O)C[C@H]4C(C)(C)[C@H](O)CC[C@]4(C)[C@H]3CC[C@@]21C
32.7 µM

Look up TGI: C=C(C)[C@]12CC(C)C34OC(/C=C\C=C\CCCCCCCCC)(O[C@@H]1[C@@H]3[C@@H]1O[C@]1(CO)[C@@H](O)[C@]1(O)C(=O)C(C)=C[C@@H]41)O2 (some centres undefined)
30.5 µM

Look up TGI: O=C(CCN1CCCCC1CO)Nc1ccc2c(c1)C(=O)c1ccc(NC(=O)CCN3CCCCC3CO)cc1C2=O (centres undefined)
31.2 µM

Look up TGI: Cn1cc(-c2nn3cc(-c4cccs4)nc3s2)c2cc(F)ccc21
> 100 µM

###

Test system: HCT-116 colon
Assay: NCI tumour cell line growth inhibition, 48 h; in the data active = GI50 below about 0.43 µM; inactive = the rest
Respond only with the outcome that fits, drawn from active, inactive

COMPOUND	SUBJECT_OF_TEST	DISCRETE_LABEL
O=[N+]([O-])c1cccc(-c2ncc(-c3ccc(Cl)cc3Cl)[nH]2)c1	HCT-116 colon	inactive
COc1ccc(CC2C(=O)NC(C)C(=O)N(C)C3Cc4ccc(cc4)Oc4cc(ccc4O)CC(C(=O)NC(C)C(=O)NC(C)C(=O)N2C)N(C)C3=O)cc1 (stereo not given)	HCT-116 colon	active
CN1CCN(C(=S)SCN2C(=O)c3ccccc3S2(=O)=O)CC1	HCT-116 colon	inactive

For this compound, state the assay outcome: O=c1c2cc(F)ccc2sc2c(NCCCN3CCCC3)nc3ccccc3c12
inactive

For this compound, state the assay outcome: CC1SC2(CCCCC2)N(NC(=O)c2[nH]c3ccc(F)cc3c2-c2ccccc2)C1=O (stereo not given)
inactive

###

Tested on: ACHN renal
Experiment: NCI tumour cell line growth inhibition, 48 h
// reported GI50 for each item listed

MOLECULE	MEASUREMENT
COC(=O)Nc1nc2ccc(Sc3ccc(NC(=O)Nc4cc(C(F)(F)F)ccc4F)cc3)cc2[nH]1	3.58 µM
CCNC(=O)Oc1ccc(/C(=C(\C)c2ccc(Cl)cc2)c2ccc(OCCN3CCCCC3)cc2)cc1	4.78 µM
O=C(NO)C(O)C(O)C(O)C(O)CO (stereo not given)	> 100 µM
COc1ccc(N=C2NN=C(c3c[nH]c4ccccc34)CS2)cc1OC	17.3 µM
CCC1(N2C(=O)c3c(F)c(F)c(F)c(F)c3C2=O)C(=O)NC(=O)N(c2ccccc2)C1=O (stereo not given)	4.02 µM

Look up GI50: Cn1c(COC(=O)NCCN2CCOCC2)nc2c(N3CCOCC3)nc(-c3ccccc3)nc21
0.936 µM

Look up GI50: Nc1ccc2c(c1)CN1C(=O)c3ccccc3C1=N2
34 µM

###

Tested on: HCT-116 colon
Assay: NCI tumour cell line growth inhibition, 48 h
METRIC: GI50

MOLECULE	MEASUREMENT
COc1ccc(-n2nc(C)c3c2N(C)C2(C)C[C@@H]4C3(C)[C@@H]3CC4(C2)N(C)c2c(c(C)nn2-c2ccc(OC)cc2)[C@H]3C)cc1 (some centres undefined)	2090 nM
COc1cc(C(=O)/C=C/c2c(C(F)(F)F)nc3sccn23)cc(OC)c1OC	1010 nM
CCCCCCN(CCCCCC)CC(O)c1cccc2ccc(Cl)cc12 (centres undefined)	3090 nM

Please examine the following record next.
Look up GI50: C=C(CC1(CC(=C)c2ccc(C(=O)O)cc2)C(=O)N(C)C(=O)N(C)C1=O)c1ccc(C(=O)O)cc1
49600 nM

###

// reported TGI for each item listed
System: HOP-62 NSCLC
Test: NCI tumour cell line growth inhibition, 48 h

COMPOUND	TGI
COc1cc2c(cc1OC)C1Cc3ccccc3CN1CCC2 (stereo not given)	> 100 µM

Look up TGI: CCc1nc(N)nc(N)c1-c1ccc([N+](=O)[O-])c(Cl)c1
> 100 µM

Look up TGI: COC(=O)CCc1ccc2c(c1)CC1(C2)Cc2ccc(CCC(=O)OC)cc2C1
> 100 µM

Look up TGI: COc1ccc(C=O)cc1Oc1ccc(C[C@H]2c3c(cc(OC)c4c3Oc3cc5c(cc3O4)CCN(C)C5=O)CCN2C)cc1
15.1 µM

Look up TGI: CC(=O)C1=C(O)/C(=C\c2ccco2)OC1=O
> 10 µM

Look up TGI: COC(=O)CNC(=O)/C=C/[C@H](O[Si](C)(C)C(C)(C)C)[C@H](/C=C/C(=O)NCC(=O)OC)O[Si](C)(C)C(C)(C)C
> 25 µM

Look up TGI: COC(=O)C1(Cc2ccccc2)Cc2ccccc2C1=O (stereo not given)
> 100 µM

Look up TGI: COc1ccc(NC(=O)C2=C(SC)C(=O)N=C2N)cc1
> 100 µM

Look up TGI: C=CC1(CCC(Br)C(C)(C)Cl)CO1 (stereo not given)
> 10 µM

Look up TGI: COc1cc(C(=O)N/N=C/c2cccc([N+](=O)[O-])c2)cc(OC)c1OC
> 100 µM
